# Test system: GST-CAP1 (a protein having PDZ domain)
# Assay protocol: Peptide capture on streptavidin-agarose beads in filter plate, tryptic digestion, MALDI MS detection of bound GST-CAP1
# Experimental context: sample GST-CAP1; m/z as printed in cell above (1358.8 or 1152.6); signal size of about 1000 or more indicates significant binding
Measured quantity: signal size (number in brackets) of MALDI MS signal

- Substance: "Biotin-SGSGEQPLT*PVTDL [CDC25]"
  Assay value: "(480)"
